Tested on: V23 1322 Burkholderia cepacia
Assay: MIC assay, CAMHB with alginate oligomer, no visible growth
Format: cell-based
Details: Table 6; V23; Experiment 2 (18-03-10); OligoCF-5/20 +2% G

{"Compound": "C[C@H]1[C@H](NC(=O)/C(=N\\OC(C)(C)C(=O)O)c2csc(N)n2)C(=O)N1S(=O)(=O)O [Aztreonam]", "Experimental target": "V23 1322 Burkholderia cepacia", "Value units": "µg/mL", "Value comparator": ">", "MIC": 4096}
{"Compound": "CC(C)(O/N=C(\\C(=O)N[C@@H]1C(=O)N2C(C(=O)[O-])=C(C[n+]3ccccc3)CS[C@H]12)c1csc(N)n1)C(=O)O [Ceftazidime]", "Experimental target": "V23 1322 Burkholderia cepacia", "Value units": "µg/mL", "Value comparator": "=", "MIC": 64}
{"Compound": "CN(C)[C@@H]1C(O)=C(C(N)=O)C(=O)[C@@]2(O)C(O)=C3C(=O)c4c(O)cccc4[C@@](C)(O)[C@H]3[C@H](O)[C@@H]12 [Oxytetracycline]", "Experimental target": "V23 1322 Burkholderia cepacia", "Value units": "µg/mL", "Value comparator": ">", "MIC": 256}
{"Compound": "CC[C@H]1OC(=O)[C@H](C)[C@@H](O[C@H]2C[C@@](C)(OC)[C@@H](O)[C@H](C)O2)[C@H](C)[C@@H](O[C@@H]2O[C@H](C)C[C@H](N(C)C)[C@H]2O)[C@](C)(O)C[C@@H](C)CN(C)[C@H](C)[C@@H](O)[C@]1(C)O [Azithromycin]", "Experimental target": "V23 1322 Burkholderia cepacia", "Value units": "µg/mL", "Value comparator": "=", "MIC": 32}
{"Compound": "CC[C@H]1OC(=O)[C@H](C)[C@@H](O[C@H]2C[C@@](C)(OC)[C@@H](O)[C@H](C)O2)[C@H](C)[C@@H](O[C@@H]2O[C@H](C)C[C@H](N(C)C)[C@H]2O)[C@](C)(OC)C[C@@H](C)C(=O)[C@H](C)[C@@H](O)[C@]1(C)O [Clarithromycin]", "Experimental target": "V23 1322 Burkholderia cepacia", "Value units": "µg/mL", "Value comparator": "=", "MIC": 128}

----------
Test system: Pseudomonas aeruginosa (MDR 301, PSA, V2)
Experiment: MIC-assay, Mueller-Hinton broth with G-block alginate, 384-well, OD600
Details: Pseudomonas aeruginosa, Table 8; V2; G-block (OligoCF-5/20) 2%
Attribute measured: MIC

{"Mol smiles": "CC[C@H]1OC(=O)[C@H](C)[C@@H](O[C@H]2C[C@@](C)(OC)[C@@H](O)[C@H](C)O2)[C@H](C)[C@@H](O[C@@H]2O[C@H](C)C[C@H](N(C)C)[C@H]2O)[C@](C)(O)C[C@@H](C)/C(=N\\OCOCCOC)[C@H](C)[C@@H](O)[C@]1(C)O", "Experimental target": "Pseudomonas aeruginosa (MDR 301, PSA, V2)", "Measured value": "> 512 µg/mL"}
{"Mol smiles": "CN(C)[C@@H]1C(O)=C(C(N)=O)C(=O)[C@@]2(O)C(O)=C3C(=O)c4c(O)cccc4[C@@](C)(O)[C@H]3[C@H](O)[C@@H]12", "Experimental target": "Pseudomonas aeruginosa (MDR 301, PSA, V2)", "Measured value": "16 µg/mL"}

----------
Overview of recorded MIC for various compounds
Test system: Pseudomonas aeruginosa (R22, PSA, V1)
Assay: MIC-assay, Mueller-Hinton broth with G-block alginate, 384-well, OD600
Conditions: Table 8, G-block (OligoCF-5/20) 6%

{"Mol smiles": "C[C@@H](O)[C@H]1C(=O)N2C(C(=O)O)=C(SCCN=CN)C[C@H]12", "Value units": "µg/mL", "Value comparator": "=", "MIC": 64}
{"Mol smiles": "CC[C@H]1OC(=O)[C@H](C)[C@@H](O[C@H]2C[C@@](C)(OC)[C@@H](O)[C@H](C)O2)[C@H](C)[C@@H](O[C@@H]2O[C@H](C)C[C@H](N(C)C)[C@H]2O)[C@](C)(O)C[C@@H](C)[C@@H]2N[C@@H](COCCOC)O[C@H]([C@H]2C)[C@]1(C)O", "Value units": "µg/mL", "Value comparator": "=", "MIC": 512}
{"Mol smiles": "CN(C)[C@@H]1C(O)=C(C(N)=O)C(=O)[C@@]2(O)C(O)=C3C(=O)c4c(O)cccc4[C@@](C)(O)[C@H]3[C@H](O)[C@@H]12", "Value units": "µg/mL", "Value comparator": ">", "MIC": 128}
{"Mol smiles": "CC(C)(O/N=C(\\C(=O)N[C@@H]1C(=O)N2C(C(=O)[O-])=C(C[n+]3ccccc3)CS[C@H]12)c1csc(N)n1)C(=O)O", "Value units": "µg/mL", "Value comparator": ">", "MIC": 16}
{"Mol smiles": "C[C@H]1[C@H](NC(=O)/C(=N\\OC(C)(C)C(=O)O)c2csc(N)n2)C(=O)N1S(=O)(=O)O", "Value units": "µg/mL", "Value comparator": "=", "MIC": 0.0625}
{"Mol smiles": "CC[C@H]1OC(=O)[C@H](C)[C@@H](O[C@H]2C[C@@](C)(OC)[C@@H](O)[C@H](C)O2)[C@H](C)[C@@H](O[C@@H]2O[C@H](C)C[C@H](N(C)C)[C@H]2O)[C@](C)(O)C[C@@H](C)CN(C)[C@H](C)[C@@H](O)[C@]1(C)O", "Value units": "µg/mL", "Value comparator": "=", "MIC": 32}
{"Mol smiles": "CC[C@H]1OC(=O)[C@H](C)[C@@H](O[C@H]2C[C@@](C)(OC)[C@@H](O)[C@H](C)O2)[C@H](C)[C@@H](O[C@@H]2O[C@H](C)C[C@H](N(C)C)[C@H]2O)[C@](C)(O)C[C@@H](C)/C(=N\\OCOCCOC)[C@H](C)[C@@H](O)[C@]1(C)O", "Value units": "µg/mL", "Value comparator": "=", "MIC": 512}

----------
System: Acinetobacter baumannii (Egypt, V9)
Experiment: MIC-assay, Mueller-Hinton broth with G-block alginate, 384-well, OD600
Settings: Table 9, G-block (OligoCF-5/20) 10%
Attribute measured: MIC

{"Mol smiles": "CC[C@H]1OC(=O)[C@H](C)[C@@H](O[C@H]2C[C@@](C)(OC)[C@@H](O)[C@H](C)O2)[C@H](C)[C@@H](O[C@@H]2O[C@H](C)C[C@H](N(C)C)[C@H]2O)[C@](C)(O)C[C@@H](C)[C@@H]2N[C@@H](COCCOC)O[C@H]([C@H]2C)[C@]1(C)O", "Measured value": "< 1 µg/mL"}
{"Mol smiles": "CC[C@H]1OC(=O)[C@H](C)[C@@H](O[C@H]2C[C@@](C)(OC)[C@@H](O)[C@H](C)O2)[C@H](C)[C@@H](O[C@@H]2O[C@H](C)C[C@H](N(C)C)[C@H]2O)[C@](C)(O)C[C@@H](C)C(=O)[C@H](C)[C@@H](O)[C@]1(C)O", "Measured value": "< 1 µg/mL"}
{"Mol smiles": "CC[C@H]1OC(=O)[C@H](C)[C@@H](O[C@H]2C[C@@](C)(OC)[C@@H](O)[C@H](C)O2)[C@H](C)[C@@H](O[C@@H]2O[C@H](C)C[C@H](N(C)C)[C@H]2O)[C@](C)(O)C[C@@H](C)/C(=N\\OCOCCOC)[C@H](C)[C@@H](O)[C@]1(C)O", "Measured value": "2 µg/mL"}

----------
System: Staphylococcus aureus (MRSA) U50
Assay: MIC-assay, Mueller-Hinton broth with G-block alginate, 384-well, OD600 (Table 12)
Assay type: cell-based
Conditions: MRSA 1040s, U50 MDR, G-block (OligoCF-5/20) 6%, read-out: MIC
Attribute measured: MIC (µg/mL)

{"Mol smiles": "C[C@@H](O)[C@H]1C(=O)N2C(C(=O)O)=C(SCCN=CN)C[C@H]12", "Attribute measured": "MIC", "Value comparator": "=", "Measured value": 0.0312}
{"Mol smiles": "CC[C@H]1OC(=O)[C@H](C)[C@@H](O[C@H]2C[C@@](C)(OC)[C@@H](O)[C@H](C)O2)[C@H](C)[C@@H](O[C@@H]2O[C@H](C)C[C@H](N(C)C)[C@H]2O)[C@](C)(O)C[C@@H](C)/C(=N\\OCOCCOC)[C@H](C)[C@@H](O)[C@]1(C)O", "Attribute measured": "MIC", "Value comparator": "=", "Measured value": 512}
{"Mol smiles": "CC(C)(O/N=C(\\C(=O)N[C@@H]1C(=O)N2C(C(=O)[O-])=C(C[n+]3ccccc3)CS[C@H]12)c1csc(N)n1)C(=O)O", "Attribute measured": "MIC", "Value comparator": "=", "Measured value": 8}
{"Mol smiles": "CN(C)[C@@H]1C(O)=C(C(N)=O)C(=O)[C@@]2(O)C(O)=C3C(=O)c4c(O)cccc4[C@@](C)(O)[C@H]3[C@H](O)[C@@H]12", "Attribute measured": "MIC", "Value comparator": "=", "Measured value": 1}
{"Mol smiles": "CC[C@H]1OC(=O)[C@H](C)[C@@H](O[C@H]2C[C@@](C)(OC)[C@@H](O)[C@H](C)O2)[C@H](C)[C@@H](O[C@@H]2O[C@H](C)C[C@H](N(C)C)[C@H]2O)[C@](C)(O)C[C@@H](C)[C@@H]2N[C@@H](COCCOC)O[C@H]([C@H]2C)[C@]1(C)O", "Attribute measured": "MIC", "Value comparator": "=", "Measured value": 512}
{"Mol smiles": "O=C(O)c1cn(C2CC2)c2cc(N3CCNCC3)c(F)cc2c1=O", "Attribute measured": "MIC", "Value comparator": ">", "Measured value": 1020}
